Measured Titer (Bleed 2), listed per entry.
System: BFA4
ASSAY DETAILS: Rabbit antibody titers after immunization with BFA4 22-mer peptides
Assay type: in vivo
DETAILS: first-listed rabbit of the pair
Reply with just the number.

# annotated cases, reported Titer (Bleed 2) shown
SPKATEETGQAQSGQANCQGLS [CLP2590] ... 12800
NHLQGSDGQQSVKESKEHSCTK [CLP2592] ... 25600
MVRKKNPPLRNVASEGEGQILE [CLP2589] ... 800000

Next, consider the following sequence.
Q: What value of Titer (Bleed 2) has been reported for the following sequence? NGEQIIRRRTRKRLNPEALQAE [CLP2593]
Result: 3200000

Cited source: patent US8207314B2
